Study target: human Kv7.2+3 (Homo sapiens, UniProt O43525+O43526)
Construct: expressed in transfected cells; host or cells: HEK293
Test description: FLIPR-based characterization of Kv7.2+3 modulators (thallium (I) sensitive BTC fluorescence assay)
Type: cell-based
Assay setup: HEK293 cells over-expressing human Kv7.2+3; Tl+ influx, FLIPR; 50% of channel activity compared to retigabine control responses; mean of at least two test runs
A collection of compounds and their measured log10 of EC50
Units before log transform: nM; reported quantity: EC50; transform: log10.

Reference set, count: 8
Task: Fill in: log10 of EC50 of CCc1ocnc1C(=O)Nc1c(C)cc(N2CCc3ncccc3C2)nc1N1CCC(F)(F)CC1 is ___
Result: 1.30

Task: Fill in: log10 of EC50 of Cc1cc(N2CCc3ncccc3C2)nc(N2CCC(F)(F)CC2)c1NC(=O)c1cnsc1C is ___
Result: 3.72

Task: Fill in: log10 of EC50 of Cc1ccoc1C(=O)Nc1c(C)cc(N2CCc3ncccc3C2)nc1N1CCC(F)(F)CC1 is ___
Result: 1.28

Task: Fill in: log10 of EC50 of Cc1cc(N2CCc3ncccc3C2)nc(N2CCC(F)(F)CC2)c1NC(=O)c1ncoc1-c1ccccc1 is ___
Result: 3.66

Task: Fill in: log10 of EC50 of Cc1cc(N2CCc3ncccc3C2)nc(N2CCCC2)c1NC(=O)c1cccc(F)c1 is ___
Result: 3.70

Task: Fill in: log10 of EC50 of Cc1ccoc1C(=O)Nc1c(C)cc(N2CCc3ncccc3C2)nc1N1CC[C@@H](F)C1 is ___
Result: 1.93

Task: Fill in: log10 of EC50 of Cc1cc(N2CCc3ncccc3C2)nc(N2CCCC2)c1NC(=O)CC(C)(C)C is ___
Result: 3.08

Task: Fill in: log10 of EC50 of Cc1cc(N2CCc3ncccc3C2)nc(N2CCCC2)c1NC(=O)Cc1cc(F)cc(F)c1 is ___
Result: 1.83

New cases:
Task: Fill in: log10 of EC50 of CCOC(=O)Nc1c(C)cc(N2CCc3ncccc3C2)nc1N1CCC(F)(F)CC1 is ___
Result: 2.45

Task: Fill in: log10 of EC50 of Cc1cc(N2CCc3ncccc3C2)nc(N2CCC(F)(F)CC2)c1NC(=O)c1ocnc1C is ___
Result: 1.81
